- Test system: CCRIS mutagenicity, Ames/micronucleus/aberration tests
- experimental.protocol: CCRIS mutagenicity studies
- particulars: Test System: AMES SALMONELLA TYPHIMURIUM; Strain/Indicator: TA100; Metabolic Activation: S-9; Method: PREINCUBATION
Active and inactive are the calls of the source. No rule for the calls is given here.

compound	tested.target	mutagenic call
COc1ccc2c3c(cccc13)C(=O)N(C)C2=O	CCRIS mutagenicity, Ames/micronucleus/aberration tests	inactive; negative
CC[C@]1(O)CC2CN(CCc3c([nH]c4ccccc34)[C@@](C(=O)OC)(c3cc4c(cc3OC)N(C=O)[C@H]3[C@@](O)(C(=O)OC)[C@H](OC(C)=O)[C@]5(CC)C=CCN6CC[C@]43[C@@H]65)C2)C1 (some centres undefined)	CCRIS mutagenicity, Ames/micronucleus/aberration tests	inactive; negative
CCN(Cc1cccc(S(=O)(=O)O)c1)c1ccc(C(=C2C=CC(=[N+](CC)Cc3cccc(S(=O)(=O)O)c3)C=C2)c2ccccc2S(=O)(=O)[O-])cc1	CCRIS mutagenicity, Ames/micronucleus/aberration tests	inactive; negative

---

- Tested on: CCRIS mutagenicity, Ames/micronucleus/aberration tests
- experimental.protocol: CCRIS mutagenicity studies
- particulars: Test System: AMES SALMONELLA TYPHIMURIUM; Strain/Indicator: TA97; Metabolic Activation: RAT, LIVER, S-9, AROCLOR 1254; Method: STANDARD PLATE
Active and inactive are the calls of the source. No rule for the calls is given here.
Assign a class; possible classes are active, inactive

> print(dat)
                                   molecule  class.label
1                                  NC(=O)NO       active
2                                 Cc1cccnc1     inactive
3  Cc1nc2c(c3[nH]c4ccccc4c13)C(=O)C=C(N1CC1)C2=O       active
4  ClCC1C(CCl)[C@@]2(Cl)C(Cl)=C(Cl)[C@]1(Cl)C2(Cl)Cl (some centres undefined)     inactive
5  O[C@H]1C=Cc2c(cc3ccc4cccc5ccc2c3c45)[C@@H]1O       active
6                                  CN(C)N=O     inactive
7                                      O=NO     inactive
8                   CCNc1nc(Cl)nc(NC(C)C)n1     inactive

Exercise: Called result for O=C1NC(=O)C(c2ccccc2)(c2ccc(O)cc2)N1 (centres undefined)
Key: inactive

Exercise: Called result for `OC(c1ccc(Cl)cc1)(c1ccc(Cl)cc1)C1CC1`
Key: inactive

Exercise: Called result for `ClCC(Cl)(Cl)Cl`
Key: active

Exercise: Called result for CCCCC(CC)COC(=O)CCCCC(=O)O (centres undefined)
Key: inactive

Exercise: Called result for `C=C(Cl)Cl`
Key: active

Exercise: Called result for `Cc1ccc(N=CN(C)C=Nc2ccc(C)cc2C)c(C)c1`
Key: inactive

---

- System: CCRIS mutagenicity, Ames/micronucleus/aberration tests
- experimental.protocol: CCRIS mutagenicity studies
- particulars: Test System: E. COLI; Strain/Indicator: WP2 UVRA; Metabolic Activation: RAT, LIVER, S-9, AROCLOR 1254; Method: STANDARD PLATE
Activity calls are given as the source filed them. How the calls were made is not given here.
reported.property: mutagenic call

Worked examples follow.
> print(dat)
                                   compound  experimental.result
1         Clc1cccc(-c2ccc(Cl)c(Cl)c2Cl)c1Cl   inactive; negative
2  CC(=O)O[C@H]1C[C@@H]2C(COC(=O)CC(C)C)=CO[C@@H](OC(=O)CC(C)C)[C@@H]2[C@@]12CO2     active; positive
3              O=C1c2c(O)cccc2Cc2cccc(O)c21   inactive; negative
4                                  CN(C)N=O     active; positive

Exercise: // query mutagenic call value for entry `Nc1ccc(S(=O)(=O)c2ccc(N)cc2)cc1`
Key: inactive; negative

Exercise: // query mutagenic call value for entry `CN(C)c1ccc(N=Nc2ccccc2)cc1`
Key: inactive; negative

Exercise: // query mutagenic call value for entry `Nc1ccc(Cc2ccc(N)cc2)cc1`
Key: inactive; negative

Exercise: // query mutagenic call value for entry `Cc1ccc2nc3c(ccc4ccccc43)c(C)c2c1`
Key: inactive; negative

Exercise: // query mutagenic call value for entry CC(C(=O)O)c1ccc(Oc2nccs2)cc1 (stereo not drawn)
Key: inactive; negative

Exercise: // query mutagenic call value for entry `Nc1ncn[nH]1`
Key: inactive; negative

Exercise: // query mutagenic call value for entry `CC(=O)C1c2cccc(O)c2C(=O)c2c(O)cccc21`
Key: inactive; negative

Exercise: // query mutagenic call value for entry `O=C1c2ccccc2C(=O)N1SC(Cl)(Cl)Cl`
Key: active; positive

Exercise: // query mutagenic call value for entry CCOP(=O)(OCC)SCCSCC (tested in a mixture with another compound)
Key: active; positive

Where do the numbers come from? From PubChem BioAssay AID1259407.
